# IC50 per entry
Target: glucosylceramide synthase (GCS) (Homo sapiens, UniProt Q16739)
Construct: The obtained supernatant was used
Sequence (Q16739 1-394): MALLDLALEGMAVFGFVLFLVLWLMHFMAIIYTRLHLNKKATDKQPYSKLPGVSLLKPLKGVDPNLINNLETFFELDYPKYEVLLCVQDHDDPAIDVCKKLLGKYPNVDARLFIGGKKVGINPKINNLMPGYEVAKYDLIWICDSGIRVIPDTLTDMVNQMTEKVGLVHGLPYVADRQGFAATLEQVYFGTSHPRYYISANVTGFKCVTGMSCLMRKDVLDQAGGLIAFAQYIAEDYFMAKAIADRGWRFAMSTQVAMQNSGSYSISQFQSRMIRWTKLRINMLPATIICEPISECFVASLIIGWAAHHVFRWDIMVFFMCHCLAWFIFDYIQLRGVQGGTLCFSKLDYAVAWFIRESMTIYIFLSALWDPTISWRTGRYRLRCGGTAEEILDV
Test: GCS enzyme inhibition assay (A549 cell lysate, NBD C6-ceramide, HPLC fluorescence)
Details: inhibitory activity against GCS, 37° C., 90 minutes

- Molecule: "O=C(NC1CCOc2cc(-c3cnn(Cc4ccccc4)c3)ccc21)O[C@@H]1CN2CCC1CC2 (stereo partly drawn) [Example 72]"
  IC50 (nM): 0.92
- Molecule: "COc1cccc(-c2cc3c(cc2OC)C(NC(=O)O[C@@H]2CN4CCC2CC4)C(C)(C)CO3)c1 (stereo partly drawn) [Example 354]"
  IC50 (nM): 0.63
- Molecule: "CC1(C)COc2cc(-c3ccc(=O)n(Cc4ccccc4)c3)ccc2C1NC(=O)O[C@@H]1CN2CCC1CC2 (stereo partly drawn) [Example 292]"
  IC50 (nM): 1.38
- Molecule: "Cc1ccc(-c2ccc3c(c2)OCC(C)(C)C3NC(=O)O[C@@H]2CN3CCC2CC3)cc1Cl (stereo partly drawn) [Example 226]"
  IC50 (nM): 0.71
- Molecule: "CC(C)(C)c1cccc(-c2ccc3c(c2)OCCC3NC(=O)O[C@@H]2CN3CCC2CC3)c1 (stereo partly drawn) [Example 25]"
  IC50 (nM): 0.65
- Molecule: "Cc1ccc(Cl)c(-c2ccc3c(c2)OCC(C)(C)C3NC(=O)O[C@@H]2CN3CCC2CC3)c1 (stereo partly drawn) [Example 224]"
  IC50 (nM): 0.62
- Molecule: "COc1ccc(Cl)c(-c2ccc3c(c2)OCCC3(C)NC(=O)O[C@@H]2CN3CCC2CC3)c1 (stereo partly drawn) [Example 301]"
  IC50 (nM): 0.8
- Molecule: "CC1(C)COc2cc(-c3cccc4cc[nH]c34)ccc2C1NC(=O)O[C@@H]1CN2CCC1CC2 (stereo partly drawn) [Example 173]"
  IC50 (nM): 1.17
- Molecule: "CCOc1ccc(-c2ccc3c(c2)OCC(C)(C)C3NC(=O)O[C@@H]2CN3CCC2CC3)c(C)c1 (stereo partly drawn) [Example 275]"
  IC50 (nM): 0.84
